assay: Nonlethal toxicity in zebrafish embryos assessed as embryo survival at 0.05 uM after 72 hrs by visual analysis (reference value: 100%); format: organism-based, Danio rerio; details: in vivo
readout: survival at 72 h, 0.05 µM (%)
Report as a plain number; the unit % is understood.

## Input Dear colleague, I am looking for the recorded survival at 72 h, 0.05 µM of the following molecule: `Cc1[nH]c(C(=O)Nc2cc(S(=O)(=O)N3CCOCC3)ccc2OCCCCCCCC(=O)NO)c2c1C(=O)CCCC2`
## Output 95

###

Record form. Attribute: IC50. Fill in for each entry.
test system: HL-60; experiment: Anticancer activity against human HL-60 cells assessed as cell growth inhibition by CellTiter-Glo luminescent assay; format: functional, cell-based
Provide only the numeric value, understood in µM.

## Input Can you share its IC50? I mean this compound: `COc1ccc(S(=O)(=O)n2ccc(/C=C/C(=O)NO)c2)cc1NC(=O)c1[nH]c(C)c2c1CCCCC2=O`
## Output 4.63

## Input Can you look up the measured IC50 of Cc1sc2c(c1C)C(c1ccc(Cl)cc1)=N[C@@H](CC(=O)Nc1ccc(O)cc1)c1nnc(C)n1-2 [BIRABRESIB] for me?
## Output 0.82

## Input Look up IC50: O=C(CCCCCCNC(=O)c1cnc(N(c2ccccc2)c2ccccc2)nc1)NO [RICOLINOSTAT]
## Output 10.4

## Input Returns the measured IC50 for the input compound. Input: `CCc1c(C(=O)Nc2cc(/C=C/C(=O)NO)ccc2OC)[nH]c(C)c1C(C)=O`
## Output 7.82

## Input Fill blank: measured IC50 of the compound `Cc1[nH]c(C(=O)Nc2cc(S(=O)(=O)N3CCOCC3)ccc2OCCCCCCCC(=O)NO)c2c1C(=O)CCCC2` is ____.
## Output 2.75
